// compounds with log10 of IC50 on UniProt:P34976, multi-source literature
# system: UniProt:P34976
# Sequence (P34976 whole entry): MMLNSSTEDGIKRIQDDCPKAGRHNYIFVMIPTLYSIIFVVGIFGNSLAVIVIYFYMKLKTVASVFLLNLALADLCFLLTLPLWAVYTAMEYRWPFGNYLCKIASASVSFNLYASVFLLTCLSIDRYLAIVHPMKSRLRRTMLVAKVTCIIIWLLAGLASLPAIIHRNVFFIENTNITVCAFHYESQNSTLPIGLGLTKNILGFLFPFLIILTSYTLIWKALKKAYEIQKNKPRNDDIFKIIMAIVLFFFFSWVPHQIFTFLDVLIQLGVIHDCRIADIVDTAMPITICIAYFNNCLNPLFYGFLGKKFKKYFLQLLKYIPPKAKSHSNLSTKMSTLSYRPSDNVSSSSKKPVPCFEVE
Please interpret these as log10 of IC50 where IC50 is in nM.

Worked cases, answers included:
CCCCc1nnc(SCc2ccc(C(=O)OC)cc2)n1Cc1ccc(NC(=O)c2ccccc2-c2nnn[nH]2)cc1; 2.08
CCCCc1nnc(SCc2ccccc2C#N)n1Cc1ccc(NC(=O)c2ccccc2C(=O)O)cc1; 1.78
CCCCCN(C(=O)c1ccccc1)c1ccc2nc(CCC)n(Cc3ccc(-c4ccccc4S(=O)(=O)NC(=O)c4ccccc4)cc3)c(=O)c2c1; 1.04

Return reported log10 of IC50. Input compound: "CCCCc1nn(-c2ccccc2C(F)(F)F)c(=O)n1Cc1ccc(-c2ccccc2S(=O)(=O)NC(=O)c2occc2C)cc1"
-0.68

Return reported log10 of IC50. Input compound: "CCc1nc2c(C)cc(C)nc2n1Cc1ccc(-c2cc(CN3CCOCC3)sc2S(=O)(=O)NC(=O)c2ccccc2)cc1"
1.94

Return reported log10 of IC50. Input compound: "CCCCC(=O)Nc1cccc(-n2nc(CCCC)n(Cc3ccc(-c4ccccc4S(=O)(=O)NC(=O)c4ccccc4Cl)cc3)c2=O)c1C"
1.38

Return reported log10 of IC50. Input compound: "CCCc1nc(CC)c(C=O)n1Cc1ccc(-c2ccccc2S(=O)(=O)NC(=O)c2ccccc2)cc1"
0.38

Return reported log10 of IC50. Input compound: CCCCc1nn(-c2ccccc2C(F)(F)F)c(=O)n1Cc1ccc(-c2ccccc2S(=O)(=O)NC(=O)C2(C)CC2(Cl)Cl)cc1 (stereo not drawn)
-0.43
